Reference source: ChEMBL document CHEMBL3864191

Assay Text: Cytotoxicity against human melanoma cells assessed as cell growth inhibition after 48 hrs by SRB assay
Type: functional
Would you mind telling me the reported GI50 of each entry?
Field note: include the unit after the figure.

Use these answered entries as a reference point.
CC1(C)CCC(CN2CCN(c3ccc(C(=O)NS(=O)(=O)c4ccc(NCC5CCOCC5)c([N+](=O)[O-])c4)c(Oc4cnc5[nH]ccc5c4)c3)CC2)=C(c2ccc(Cl)cc2)C1; 1750 nM
COC(=O)CCCCN/C=C1\C(=O)C(O)=C(C(C)C)c2cc(C)c(-c3c(C)cc4c(c3O)/C(=C/NCCCCC(=O)OC)C(=O)C(O)=C4C(C)C)c(O)c21; 1420 nM

# input for lookup
stdin: Check the records and state GI50 for COC(=O)CN/C=C1\C(=O)C(O)=C(C(C)C)c2cc(C)c(-c3c(C)cc4c(c3O)/C(=C/NCC(=O)OC)C(=O)C(O)=C4C(C)C)c(O)c21
stdout: 2840 nM

---

Assay Text: Cytotoxicity against mouse CT26 cells assessed as reduction in cell viability after 72 hrs by MTT assay
Type: functional, cell-based
Condition Summary: Mus musculus, CT26, 72 h
Sorting guide: entries reporting IC50 beneath 6 µM go in the 1 pile, the rest go in the 0 pile.

Cc1cc2c(c(O)c1-c1c(C)cc3c(c1O)/C(=C/NCCC(=O)O)C(=O)C(O)=C3C(C)C)/C(=C/NCCC(=O)O)C(=O)C(O)=C2C(C)C; 0
COC(=O)CCCCCN/C=C1\C(=O)C(O)=C(C(C)C)c2cc(C)c(-c3c(C)cc4c(c3O)/C(=C/NCCCCCC(=O)OC)C(=O)C(O)=C4C(C)C)c(O)c21; 0

stdin: Just wondering, is IC50 of Cc1cc2c(c(O)c1-c1c(C)cc3c(c1O)/C(=C/NCCCCCC(=O)O)C(=O)C(O)=C3C(C)C)/C(=C/NCCCCCC(=O)O)C(=O)C(O)=C2C(C)C below 6 µM?
stdout: 1

stdin: # TODO verify IC50 < 6 µM strictly for this molecule: Cc1cc2c(c(O)c1-c1c(C)cc3c(c1O)/C(=C/NCCCCCCC(=O)O)C(=O)C(O)=C3C(C)C)/C(=C/NCCCCCCC(=O)O)C(=O)C(O)=C2C(C)C
stdout: 1

stdin: Dear reviewer, please state whether COC(=O)CCN/C=C1\C(=O)C(O)=C(C(C)C)c2cc(C)c(-c3c(C)cc4c(c3O)/C(=C/NCCC(=O)OC)C(=O)C(O)=C4C(C)C)c(O)c21 has IC50 strictly beneath 6 µM.
stdout: 1

stdin: Consider the molecule COC(=O)CCCCCCN/C=C1\C(=O)C(O)=C(C(C)C)c2cc(C)c(-c3c(C)cc4c(c3O)/C(=C/NCCCCCCC(=O)OC)C(=O)C(O)=C4C(C)C)c(O)c21 . Is its IC50 strictly less than 6 µM?
stdout: 1

stdin: Decide: IC50 of Cc1cc2c(c(O)c1-c1c(C)cc3c(c1O)/C(=C/NCCCS(=O)(=O)O)C(=O)C(O)=C3C(C)C)/C(=C/NCCCS(=O)(=O)O)C(=O)C(O)=C2C(C)C strictly below 6 µM?
stdout: 0

stdin: Regarding COC(=O)CCCN/C=C1\C(=O)C(O)=C(C(C)C)c2cc(C)c(-c3c(C)cc4c(c3O)/C(=C/NCCCC(=O)OC)C(=O)C(O)=C4C(C)C)c(O)c21 (stereo in doubt; 16) , kindly confirm whether its IC50 is beneath 6 µM.
stdout: 0

stdin: For this molecule, is IC50 lower than 6 µM? COC(=O)c1ccccc1N/C=C1\C(=O)C(O)=C(C(C)C)c2cc(C)c(-c3c(C)cc4c(c3O)/C(=C/Nc3ccccc3C(=O)OC)C(=O)C(O)=C4C(C)C)c(O)c21
stdout: 0

stdin: Does the reported IC50 of COC(=O)CCCCN/C=C1\C(=O)C(O)=C(C(C)C)c2cc(C)c(-c3c(C)cc4c(c3O)/C(=C/NCCCCC(=O)OC)C(=O)C(O)=C4C(C)C)c(O)c21 stay below 6 µM?
stdout: 0

stdin: Please indicate whether the reported IC50 of Cc1cc2c(c(O)c1-c1c(C)cc3c(c1O)/C(=C/NC(C)(C)C)C(=O)C(O)=C3C(C)C)/C(=C/NC(C)(C)C)C(=O)C(O)=C2C(C)C is strictly below 6 µM.
stdout: 0

---

Please go through the items and note down their log10 IC50.
Assay Text: Cytotoxicity against human DU145 cells assessed as reduction in cell viability after 72 hrs by MTT assay
Type: functional, cell-based, DU-145
Condition Summary: Homo sapiens, DU-145, 72 h
Parameter value (number): base-10 log of IC50 in µM.

The cases that follow already have their log10 IC50 on record.
COC(=O)CCCCCN/C=C1\C(=O)C(O)=C(C(C)C)c2cc(C)c(-c3c(C)cc4c(c3O)/C(=C/NCCCCCC(=O)OC)C(=O)C(O)=C4C(C)C)c(O)c21; 0.93
COC(=O)[C@@H](N/C=C1\C(=O)C(O)=C(C(C)C)c2cc(C)c(-c3c(C)cc4c(c3O)/C(=C/N[C@H](C(=O)OC)C(C)C)C(=O)C(O)=C4C(C)C)c(O)c21)C(C)C; 1.08
Cc1cc2c(c(O)c1-c1c(C)cc3c(c1O)/C(=C/NCCCCCC(=O)O)C(=O)C(O)=C3C(C)C)/C(=C/NCCCCCC(=O)O)C(=O)C(O)=C2C(C)C; 1.44
Cc1cc2c(c(O)c1-c1c(C)cc3c(c1O)/C(=C/NCCS(=O)(=O)O)C(=O)C(O)=C3C(C)C)/C(=C/NCCS(=O)(=O)O)C(=O)C(O)=C2C(C)C; 1.46
Cc1cc2c(c(O)c1-c1c(C)cc3c(c1O)/C(=C/NCCC(=O)O)C(=O)C(O)=C3C(C)C)/C(=C/NCCC(=O)O)C(=O)C(O)=C2C(C)C; 1.33

Give log10 IC50 for each of the items listed below.
1. Cc1cc2c(c(O)c1-c1c(C)cc3c(c1O)/C(=C/NCc1ccccc1)C(=O)C(O)=C3C(C)C)/C(=C/NCc1ccccc1)C(=O)C(O)=C2C(C)C
2. Cc1cc2c(c(O)c1-c1c(C)cc3c(c1O)/C(=C/NCCCS(=O)(=O)O)C(=O)C(O)=C3C(C)C)/C(=C/NCCCS(=O)(=O)O)C(=O)C(O)=C2C(C)C
3. Cc1cc2c(c(O)c1-c1c(C)cc3c(c1O)/C(=C/NCCCCCCC(=O)O)C(=O)C(O)=C3C(C)C)/C(=C/NCCCCCCC(=O)O)C(=O)C(O)=C2C(C)C
4. Cc1cc2c(c(O)c1-c1c(C)cc3c(c1O)/C(=C/NCCCCC(=O)O)C(=O)C(O)=C3C(C)C)/C(=C/NCCCCC(=O)O)C(=O)C(O)=C2C(C)C
5. COC(=O)CCCN/C=C1\C(=O)C(O)=C(C(C)C)c2cc(C)c(-c3c(C)cc4c(c3O)/C(=C/NCCCC(=O)OC)C(=O)C(O)=C4C(C)C)c(O)c21 (stereo in doubt; 16)
6. Cc1cc2c(c(O)c1-c1c(C)cc3c(c1O)/C(=C/NC1CCCCC1)C(=O)C(O)=C3C(C)C)/C(=C/NC1CCCCC1)C(=O)C(O)=C2C(C)C

stdout:
[1.34, 1.56, 1.28, 1.32, 0.38, 1.32]

---

Assay Text: Cytotoxicity against human DU145 cells assessed as reduction in cell viability after 72 hrs by MTT assay
Type: functional, cell-based, DU-145
Condition Summary: Homo sapiens, DU-145, 72 h
Provide the reported pIC50 of each item.
One number for each entry, as −log10 of the molar value.

Example entries begin here.
Cc1cc2c(c(O)c1-c1c(C)cc3c(c1O)/C(=C/NCCCC(=O)O)C(=O)C(O)=C3C(C)C)/C(=C/NCCCC(=O)O)C(=O)C(O)=C2C(C)C; 4.74
COC(=O)CCCCN/C=C1\C(=O)C(O)=C(C(C)C)c2cc(C)c(-c3c(C)cc4c(c3O)/C(=C/NCCCCC(=O)OC)C(=O)C(O)=C4C(C)C)c(O)c21; 5.13

Now let's try a different one.
stdin: Respond only with pIC50 recorded for Cc1cc2c(c(O)c1-c1c(C)cc3c(c1O)/C(=C/NC(C)(C)C)C(=O)C(O)=C3C(C)C)/C(=C/NC(C)(C)C)C(=O)C(O)=C2C(C)C
stdout: 4.77

---

Observed Ki values for Apoptosis regulator Bcl-2 (Homo sapiens, UniProt P10415) are listed in what follows.
Answers are plain numbers, in nM.

Study these solved cases before continuing.
COC(=O)CCCCN/C=C1\C(=O)C(O)=C(C(C)C)c2cc(C)c(-c3c(C)cc4c(c3O)/C(=C/NCCCCC(=O)OC)C(=O)C(O)=C4C(C)C)c(O)c21; 182
Cc1cc2c(c(O)c1-c1c(C)cc3c(c1O)/C(=C/NCCCC(=O)O)C(=O)C(O)=C3C(C)C)/C(=C/NCCCC(=O)O)C(=O)C(O)=C2C(C)C; 235
COC(=O)CCN/C=C1\C(=O)C(O)=C(C(C)C)c2cc(C)c(-c3c(C)cc4c(c3O)/C(=C/NCCC(=O)OC)C(=O)C(O)=C4C(C)C)c(O)c21; 90

Please supply Ki for each of the following items, keeping them in order.
1. COC(=O)CCCN/C=C1\C(=O)C(O)=C(C(C)C)c2cc(C)c(-c3c(C)cc4c(c3O)/C(=C/NCCCC(=O)OC)C(=O)C(O)=C4C(C)C)c(O)c21 (stereo in doubt; 16)
2. COC(=O)CCCCCN/C=C1\C(=O)C(O)=C(C(C)C)c2cc(C)c(-c3c(C)cc4c(c3O)/C(=C/NCCCCCC(=O)OC)C(=O)C(O)=C4C(C)C)c(O)c21

stdout:
[341, 348]
